test system: primary human airway basal cells (HBEC, luciferase-transduced); test: proliferation (luciferase bioluminescence) Z score relative to plate mean; higher = more proliferation / more cells, active = 1.96 or more; conditions: donor: 1; 5 µM; library: ENZO Libraries; 4 days
Threshold check on proliferation: at or above -0.3 gives T, strictly below gives F.

compound	category
CO[C@H]1C[C@@H]2CC[C@@H](C)[C@@](O)(O2)C(=O)C(=O)N2CCCC[C@H]2C(=O)O[C@H]([C@H](C)C[C@@H]2CC[C@@H](O)[C@H](OC)C2)CC(=O)[C@H](C)/C=C(\C)[C@@H](O)[C@@H](OC)C(=O)[C@H](C)C[C@H](C)/C=C/C=C/C=C/1C	F
CO[C@@H]1[C@H](OC(=O)/C=C/C=C/C=C/C=C/C(=O)O)CC[C@]2(CO2)[C@H]1[C@@]1(C)O[C@@H]1CC=C(C)C	F
Cc1ccc(C(=O)c2cc(/C=C/C(=O)NO)n(C)c2)cc1	T
CCN1C(=O)C=CC1=O [N-Ethylmaleimide]	T
